# System Name: T1, rat APJ receptor (rat, UniProt Q9JHG3 1-377)
# T1 sequence (looked up): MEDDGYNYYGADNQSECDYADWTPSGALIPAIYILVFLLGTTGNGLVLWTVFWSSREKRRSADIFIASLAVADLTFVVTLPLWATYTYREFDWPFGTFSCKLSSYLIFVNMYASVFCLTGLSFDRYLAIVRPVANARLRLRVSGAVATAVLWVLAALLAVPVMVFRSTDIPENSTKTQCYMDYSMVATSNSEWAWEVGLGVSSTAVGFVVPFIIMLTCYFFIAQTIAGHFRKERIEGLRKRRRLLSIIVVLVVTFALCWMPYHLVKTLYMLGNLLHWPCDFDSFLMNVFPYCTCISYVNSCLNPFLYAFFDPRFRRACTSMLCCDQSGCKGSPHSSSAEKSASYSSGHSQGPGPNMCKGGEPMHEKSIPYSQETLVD
# Experimental Protocol: cell-based or functional assay
Starred links: 1 amine or outer side, 2 acyl side, 3 side chain; linkers in the order of their positions; H or OH if unused. Non-standard residues stand in square brackets, D forms with d. Primed or numbered codes have the meaning given here. No end group written: not given here. *: point of attachment. NPeg9 = PEG amine from Pra click product: 32-amino-3,6,9,12,15,18,21,24,27,30-decaoxadotriacontyl, NCCOCCOCCOCCOCCOCCOCCOCCOCCOCCOCC*; Pra′ = its azide, alkyne or alkene has reacted where a group follows in round brackets; DrSer = D-serine with ψ(CH2NH) reduced amide bond, C(O[*:3])[C@H](C[*:2])N[*:1]; rSer = serine with ψ(CH2NH) reduced amide bond, C(O[*:3])[C@@H](C[*:2])N[*:1]; dBip = N[C@H](Cc1ccc(-c2ccccc2)cc1)C(=O)O; Oic = O=C(O)[C@@H]1C[C@@H]2CCCC[C@@H]2N1; Phe(4-Cl) = N[C@@H](Cc1ccc(Cl)cc1)C(=O)O; Phe(4-I) = N[C@@H](Cc1ccc(I)cc1)C(=O)O; hArg = N=C(N)NCCCC[C@H](N)C(=O)O; Cha = N[C@@H](CC1CCCCC1)C(=O)O; NMeL = CN[C@@H](CC(C)C)C(=O)O; pGlu = O=C1CC[C@@H](C(=O)O)N1; NMeV = CN[C@H](C(=O)O)C(C)C; αMeP = C[C@@]1(C(=O)O)CCCN1; β3hP = O=C(O)C[C@@H]1CCCN1; Nle = CCCC[C@H](N)C(=O)O; Orn = NCCC[C@H](N)C(=O)O; βAla = NCCC(=O)O; Sar = CNCC(=O)O
EC50 Rat APJ Receptor strictly under 4 nM means yes (1); at 4 nM or over means no (0).

Binder | Classification
Ac-[Orn]F[hArg][hArg]Q[hArg]P[hArg][Cha][DrSer]HKG[Oic][Nle]P[Phe(4-Cl)]-OH (also: reduced amide bond at D-Ser10 (DrSer)) [apelin polypeptide SEQ ID NO: 44] | yes (1)
[Orn]F[hArg][hArg]Q[hArg][Sar][hArg][Cha]SHKG[Oic][Nle]P[Phe(4-Cl)] [apelin polypeptide SEQ ID NO: 676] | yes (1)
[Orn]F[hArg][hArg]Q[hArg]P[hArg][Cha]SHKG[Oic][Nle][βAla][Phe(4-Cl)] [apelin polypeptide SEQ ID NO: 710] | yes (1)
[Orn]F[hArg][hArg]Q[hArg]P[hArg][Cha]SHKG[β3hP][Nle]P[Phe(4-Cl)] [apelin polypeptide SEQ ID NO: 706] | no (0)
Ac-[Orn]F[hArg][hArg]Q[hArg]P[hArg][Cha]SHKG[Oic][Nle][αMeP][Phe(4-Cl)]-OH [apelin polypeptide SEQ ID NO: 37] | yes (1)
[pGlu]RP[hArg][Cha][Pra′](NPeg9)HKG[Oic][Nle]P[Phe(4-Cl)]-OH [apelin polypeptide SEQ ID NO: 96] | no (0)
Ac-[dR]Q[hArg]P[dR][NMeL]SHKG[Oic][Phe(4-I)]P[dBip]-OH [apelin polypeptide SEQ ID NO: 50] | yes (1)
QRPRLSHKGXFPX ({Acetyl-NH}Q[hArg]Pr[NMeLeu]SHKG[Oic][pI-Phe]P[D-Bip]{COOH}) [apelin polypeptide SEQ ID NO: 53] | no (0)
[Orn]F[hArg][hArg]Q[hArg]P[hArg][Cha]S[NMeV]KG[Oic][Nle]P[Phe(4-Cl)] [apelin polypeptide SEQ ID NO: 679] | no (0)
Ac-[Orn]F[hArg][hArg]Q[hArg]P[hArg][Cha][rSer]HKG[Oic][Nle]P[Phe(4-Cl)]-OH (also: reduced amide bond at Ser10 (rSer)) [apelin polypeptide SEQ ID NO: 43] | yes (1)

Data credit: patent US10941182
